test: The drug is tested on Blautia hansenii strain: DSM20583 for biotransformation under anaerobic condition. The drug concentrations were measured over 6 timepoints collected between 0 and 12 hours of incubation by liquid-chromatography-coupled mass spectrometry (LC–MS); format: ADME; set-up: dose 5 uM, timepoint 0, 1.5, 3, 6, 9, 12 hours; conditions: 5 µM
quantity: Bacterial Biotransformation

Requested field: Bacterial Biotransformation. Item: Cn1cnc([N+](=O)[O-])c1Sc1ncnc2nc[nH]c12 [AZATHIOPRINE] Compound NOT metabolized

Entry to check: C[C@H]1C[C@@H]2[C@H]([C@@H](O)C[C@@]3(C)[C@H]2CC[C@]3(O)C(=O)CO)[C@@]2(C)C=CC(=O)C=C12 [METHYLPREDNISOLONE] Compound NOT metabolized

Further, for C[C@H]1C[C@H]2[C@@H]3CCC4=CC(=O)C=C[C@]4(C)[C@@]3(F)[C@@H](O)C[C@]2(C)[C@@]1(O)C(=O)CO [BETAMETHASONE] ? Compound NOT metabolized

----------
assay: The drug is tested on Enterococcus faecalis strain: ATCC29212 for biotransformation under microaerobic condition. The drug concentrations were measured over 6 timepoints collected between 0 and 12 hours of incubation by liquid-chromatography-coupled mass spectrometry (LC–MS); format: ADME; parameters: dose 5 uM, timepoint 0, 1.5, 3, 6, 9, 12 hours; conditions: 5 µM
quantity: Bacterial Biotransformation

Which Bacterial Biotransformation value belongs to CO[C@H]1C[C@@H]2CC[C@@H](C)[C@@](O)(O2)C(=O)C(=O)N2CCCC[C@H]2C(=O)O[C@H]([C@H](C)C[C@@H]2CC[C@@H](OCCO)[C@H](OC)C2)CC(=O)[C@H](C)/C=C(\C)[C@@H](O)[C@@H](OC)C(=O)[C@H](C)C[C@H](C)/C=C/C=C/C=C/1C [EVEROLIMUS] ? Compound NOT metabolized

Query C[C@@H]1C[C@H]2[C@@H]3CCC4=CC(=O)C=C[C@]4(C)[C@@]3(F)[C@@H](O)C[C@]2(C)[C@@]1(O)C(=O)CO [DEXAMETHASONE] next Compound NOT metabolized

How about COc1c(C)c2c(c(O)c1C/C=C(\C)CCC(=O)OCCN1CCOCC1)C(=O)OC2 [MYCOPHENOLATE MOFETIL] ? Compound metabolized

Same read-out for CCCC1O[C@@H]2C[C@H]3[C@@H]4CCC5=CC(=O)C=C[C@]5(C)[C@H]4[C@@H](O)C[C@]3(C)[C@]2(C(=O)CO)O1 (stereo partly specified) [BUDESONIDE] ? Compound NOT metabolized

Further, for COc1c(C)c2c(c(O)c1C/C=C(\C)CCC(=O)O)C(=O)OC2 [MYCOPHENOLIC ACID] ? Compound NOT metabolized

Turning now to a further molecule:
So what does the record say about Bacterial Biotransformation for CNC(=C[N+](=O)[O-])NCCSCc1ccc(CN(C)C)o1 [RANITIDINE] ? Compound metabolized

----------
assay: The drug is tested on the gut metagenome community of P-02 with ENA study accession number: PRJEB31790 for biotransformation under microaerobic condition. The drug concentrations were measured over 7 timepoints collected between 0 and 12 hours of incubation by liquid-chromatography-coupled mass spectrometry (LC–MS); assay type: ADME; design: dose 5 uM, timepoint 0, 0.75, 1.5, 3, 6, 9, 12 hours; settings: 5 µM
quantity: Bacterial Biotransformation

Entry CN(Cc1cnc2nc(N)nc(N)c2n1)c1ccc(C(=O)N[C@@H](CCC(=O)O)C(=O)O)cc1 [METHOTREXATE] has what Bacterial Biotransformation? Compound NOT metabolized

Cool, now CCOC(=O)C1=C(COCCN)NC(C)=C(C(=O)OC)C1c1ccccc1Cl (centres undefined) [AMLODIPINE] Compound NOT metabolized

Quick one: C[C@@H](NCCCc1cccc(C(F)(F)F)c1)c1cccc2ccccc12 Compound NOT metabolized

Next record, please: CCCC1O[C@@H]2C[C@H]3[C@@H]4CCC5=CC(=O)C=C[C@]5(C)[C@H]4[C@@H](O)C[C@]3(C)[C@]2(C(=O)CO)O1 (some centres undefined) [BUDESONIDE] Compound NOT metabolized

----------
assay: The drug is tested on the gut metagenome community of A-03 with ENA study accession number: PRJEB31790 for biotransformation under anaerobic condition. The drug concentrations were measured over 7 timepoints collected between 0 and 12 hours of incubation by liquid-chromatography-coupled mass spectrometry (LC–MS); format: ADME; set-up: dose 5 uM, timepoint 0, 0.75, 1.5, 3, 6, 9, 12 hours; conditions: 5 µM
quantity: Bacterial Biotransformation

Look at this molecule and give its reported Bacterial Biotransformation. Cn1cnc([N+](=O)[O-])c1Sc1ncnc2nc[nH]c12 Compound metabolized

Another molecule to check: C[C@]12CCC(=O)C=C1CC[C@@H]1[C@@H]2[C@@H](O)C[C@@]2(C)[C@H]1CC[C@]2(O)C(=O)CO [HYDROCORTISONE] Compound metabolized

Here is the next molecule: CNC(=C[N+](=O)[O-])NCCSCc1ccc(CN(C)C)o1 Compound metabolized

----------
test: The drug is tested on Bacteroides caccae strain: DSM19024 for biotransformation under anaerobic condition. The drug concentrations were measured over 6 timepoints collected between 0 and 12 hours of incubation by liquid-chromatography-coupled mass spectrometry (LC–MS); type: ADME; design: dose 5 uM, timepoint 0, 1.5, 3, 6, 9, 12 hours; conditions: 5 µM
quantity: Bacterial Biotransformation

Could you tell me which Bacterial Biotransformation is on file for CC(C)NCC(O)COc1ccc(CC(N)=O)cc1 (centres undefined) ? Compound NOT metabolized

Now consider C[C@H]1C[C@H]2[C@@H]3CCC4=CC(=O)C=C[C@]4(C)[C@@]3(F)[C@@H](O)C[C@]2(C)[C@@]1(O)C(=O)CO . Compound NOT metabolized

And CO[C@H]1C[C@@H]2CC[C@@H](C)[C@@](O)(O2)C(=O)C(=O)N2CCCC[C@H]2C(=O)O[C@H]([C@H](C)C[C@@H]2CC[C@@H](O)[C@H](OC)C2)CC(=O)[C@H](C)/C=C(\C)[C@@H](O)[C@@H](OC)C(=O)[C@H](C)C[C@H](C)/C=C/C=C/C=C/1C ? Compound metabolized

How about this compound: CCCC1O[C@@H]2C[C@H]3[C@@H]4CCC5=CC(=O)C=C[C@]5(C)[C@H]4[C@@H](O)C[C@]3(C)[C@]2(C(=O)CO)O1 (some centres undefined) [BUDESONIDE] Compound NOT metabolized

Another compound to look at: COc1c(C)c2c(c(O)c1C/C=C(\C)CCC(=O)OCCN1CCOCC1)C(=O)OC2 [MYCOPHENOLATE MOFETIL] Compound metabolized

Same read-out for C[C@]12CCC(=O)C=C1CC[C@@H]1[C@@H]2[C@@H](O)C[C@@]2(C)[C@H]1CC[C@]2(O)C(=O)CO [HYDROCORTISONE] ? Compound NOT metabolized

Again, but for Cn1cnc([N+](=O)[O-])c1Sc1ncnc2nc[nH]c12 Compound metabolized

Repeat with C[C@H]1C[C@@H]2[C@H]([C@@H](O)C[C@@]3(C)[C@H]2CC[C@]3(O)C(=O)CO)[C@@]2(C)C=CC(=O)C=C12 Compound NOT metabolized

We now examine a further compound.
Entry under review: CCC(C)(C)C(=O)O[C@H]1C[C@@H](C)C=C2C=C[C@H](C)[C@H](CC[C@@H]3C[C@@H](O)CC(=O)O3)[C@H]21 . Reported Bacterial Biotransformation? Compound NOT metabolized

----------
experiment: The drug is tested on Bacteroides ovatus strain: ATCC 8483 for biotransformation under anaerobic condition. The drug concentrations were measured over 6 timepoints collected between 0 and 12 hours of incubation by liquid-chromatography-coupled mass spectrometry (LC–MS); format: ADME; set-up: dose 5 uM, timepoint 0, 1.5, 3, 6, 9, 12 hours; settings: 5 µM
quantity: Bacterial Biotransformation

Consider the following illustrative entries.
# lookup: Bacterial Biotransformation of C[C@]12CCC(=O)C=C1CC[C@@H]1[C@@H]2[C@@H](O)C[C@@]2(C)[C@H]1CC[C@]2(O)C(=O)CO [HYDROCORTISONE] Compound NOT metabolized

Then what about the compound CCOC(=O)[C@H](CCc1ccccc1)N[C@@H](C)C(=O)N1[C@H](C(=O)O)C[C@@H]2CCC[C@@H]21 ? Compound NOT metabolized

Check NS(=O)(=O)c1cc(C(=O)O)c(NCc2ccco2)cc1Cl [FUROSEMIDE] too. Compound NOT metabolized

Please do the same for COc1ccc([C@@H]2Sc3ccccc3N(CCN(C)C)C(=O)[C@@H]2OC(C)=O)cc1 as well. Compound metabolized

Next: COc1c(C)c2c(c(O)c1C/C=C(\C)CCC(=O)O)C(=O)OC2 Compound NOT metabolized

Field entry: COc1c(C)c2c(c(O)c1C/C=C(\C)CCC(=O)OCCN1CCOCC1)C(=O)OC2 [MYCOPHENOLATE MOFETIL] Compound metabolized

Same for CN(Cc1cnc2nc(N)nc(N)c2n1)c1ccc(C(=O)N[C@@H](CCC(=O)O)C(=O)O)cc1 [METHOTREXATE] Compound NOT metabolized

Would you mind doing CNC(=C[N+](=O)[O-])NCCSCc1ccc(CN(C)C)o1 as well? Compound metabolized

Next: C[C@H]1C[C@H]2[C@@H]3CCC4=CC(=O)C=C[C@]4(C)[C@@]3(F)[C@@H](O)C[C@]2(C)[C@@]1(O)C(=O)CO Compound NOT metabolized

// next record C=CC[C@@H]1/C=C(\C)C[C@H](C)C[C@H](OC)[C@H]2O[C@@](O)(C(=O)C(=O)N3CCCC[C@H]3C(=O)O[C@H](/C(C)=C/[C@@H]3CC[C@@H](O)[C@H](OC)C3)[C@H](C)[C@@H](O)CC1=O)[C@H](C)C[C@@H]2OC.O Compound NOT metabolized

Continuing:
Dear colleague, I am looking for the recorded Bacterial Biotransformation of the following compound: C[C@@H]1C[C@H]2[C@@H]3CCC4=CC(=O)C=C[C@]4(C)[C@@]3(F)[C@@H](O)C[C@]2(C)[C@@]1(O)C(=O)CO Compound NOT metabolized

Item: C[C@]12CCC(=O)C=C1CC[C@@H]1[C@@H]2C(=O)C[C@@]2(C)[C@H]1CC[C@]2(O)C(=O)CO Compound NOT metabolized

Now try CC(C)NCC(O)COc1ccc(CC(N)=O)cc1 (centres undefined) . Compound NOT metabolized

Param item: CCCC1O[C@@H]2C[C@H]3[C@@H]4CCC5=CC(=O)C=C[C@]5(C)[C@H]4[C@@H](O)C[C@]3(C)[C@]2(C(=O)CO)O1 (some centres undefined) [BUDESONIDE] Compound NOT metabolized

Provenance of the data: ChEMBL document CHEMBL5724806
